As an illustration, consider measured IC50 for compounds on Lysosomal acid glucosylceramidase (Homo sapiens).
Sequence (P04062 whole entry): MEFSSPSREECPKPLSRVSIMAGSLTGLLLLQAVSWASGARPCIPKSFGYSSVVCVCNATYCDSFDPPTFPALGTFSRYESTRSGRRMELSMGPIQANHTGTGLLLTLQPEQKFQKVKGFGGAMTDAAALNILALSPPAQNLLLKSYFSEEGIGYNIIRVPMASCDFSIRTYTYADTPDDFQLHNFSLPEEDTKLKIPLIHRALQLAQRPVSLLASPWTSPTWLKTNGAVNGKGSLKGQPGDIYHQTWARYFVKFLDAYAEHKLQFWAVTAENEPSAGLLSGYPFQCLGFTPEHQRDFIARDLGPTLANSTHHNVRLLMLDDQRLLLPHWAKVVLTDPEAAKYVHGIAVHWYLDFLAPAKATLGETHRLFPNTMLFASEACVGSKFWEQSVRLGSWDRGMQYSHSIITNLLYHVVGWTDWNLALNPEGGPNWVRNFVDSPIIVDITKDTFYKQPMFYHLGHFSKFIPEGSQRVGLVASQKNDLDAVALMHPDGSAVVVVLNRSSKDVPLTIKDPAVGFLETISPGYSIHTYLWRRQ
Answer format: numeric, µM implied, no suffix.

In [3]: df
Out[3]:
                               smiles_entry  measurement_name  display_unit  result_number
0  CCCCCC[C@H]1N[C@H](CO)[C@@H](O)[C@H](O)[C@H]1O              IC50            µM            4.2
1     CN1C[C@H](O)[C@@H](O)[C@H](O)[C@H]1CO              IC50            µM            150
2  CCCCCCCC[C@H]1N[C@H](CO)[C@@H](O)[C@H](O)[C@H]1O              IC50            µM            0.5

Any idea what IC50 was measured for CCCCCCN1C[C@H](O)[C@@H](O)[C@H](O)[C@H]1CO ?
13

Could you do the same for CCCN1C[C@H](O)[C@@H](O)[C@H](O)[C@H]1CO , please?
700

Could you do the same for CCCCCCCCN1C[C@H](O)[C@@H](O)[C@H](O)[C@H]1CO , please?
0.82
